Test: Plasma pharmacokinetics after single intravenous or intragastric dose
Format: in vivo, male ICR mice
Conditions: male, ICR, mouse; intravenous 5 mg/kg; plasma; read-out: Tmax
MEASURE NAME: Tmax (h)
Dear colleague, please return just the value in h, with no unit written.

The compound listed as COc1cc(C)c2c(Oc3cccc(C(F)(F)F)c3)c(OC)cc(NC(C)CCCN)c2n1 (stereo not shown) [Tafenoquine, tafenoquine] shows Tmax equal to 1.36

* * *

Test: Plasma pharmacokinetics after single intravenous or intragastric dose
Type: in vivo, male ICR mice
Details: ICR, mouse, in vivo; intravenous 5 mg/kg; plasma; male mice
MEASURE NAME: Cmax (ng/mL)
Dear colleague, please return just the value in ng/mL, with no unit written.

The compound listed as COc1cc(NC(C)CCCN)c2ncccc2c1 (stereo not shown) [Primaquine, primaquine] shows Cmax equal to 1210

* * *

Assay: Plasma pharmacokinetics after single intravenous or intragastric dose
Format: in vivo, male ICR mice
Conditions: male, ICR, mouse; intravenous 5 mg/kg; plasma; read-out: t1/2 elimination (converted)
MEASURE NAME: half-life (h)
Dear colleague, please return just the value in h, with no unit written.

The molecule listed as COc1cc(C)c2c(Oc3cccc(C(F)(F)F)c3)c(OC)cc(NC(C)CCCN)c2n1 (stereo not shown) shows half-life equal to 66.3

* * *

Assay: Plasma pharmacokinetics after single intravenous or intragastric dose
Format: in vivo, male ICR mice
Conditions: male, ICR, mouse; intravenous 5 mg/kg; plasma; read-out: AUCinfininty
MEASURE NAME: AUC (ng·h/mL)
Dear colleague, please return just the value in ng·h/mL, with no unit written.

The compound listed as COc1cc(C)c2c(Oc3cccc(C(F)(F)F)c3)c(OC)cc(NC(C)CCCN)c2n1 (stereo not shown) [Tafenoquine, tafenoquine] shows AUC equal to 30100

* * *

Assay: Liver tissue distribution pharmacokinetics after single intravenous or intragastric dose
Type: in vivo, male ICR mice
Conditions: male, ICR, mouse; intravenous 5 mg/kg; liver; read-out: t1/2 elimination (converted)
MEASURE NAME: half-life (h)
Dear colleague, please return just the value in h, with no unit written.

The compound listed as COc1cc(C)c2c(Oc3cccc(C(F)(F)F)c3)c(OC)cc(NC(C)CCCN)c2n1 (stereo not shown) [Tafenoquine, tafenoquine] shows half-life equal to 70

* * *

Experiment: Liver tissue distribution pharmacokinetics after single intravenous or intragastric dose
Type: in vivo, male ICR mice
Settings: male, ICR, mouse, liver/plasma, po; intragastric 20 mg/kg; read-out: AUCinf ratio (liver/plasma)
MEASURE NAME: Kp
When you answer, write just the number.

The compound listed as COc1cc(C)c2c(Oc3cccc(C(F)(F)F)c3)c(OC)cc(NC(C)CCCN)c2n1 (stereo not shown) shows Kp equal to 48.9

* * *

Assay: Plasma pharmacokinetics after single intravenous or intragastric dose
Type: in vivo, male ICR mice
Conditions: ICR, mouse; intravenous 5 mg/kg; plasma; male mice
MEASURE NAME: Cmax (ng/mL)
Dear colleague, please return just the value in ng/mL, with no unit written.

The molecule listed as COc1cc(C)c2c(Oc3cccc(C(F)(F)F)c3)c(OC)cc(NC(C)CCCN)c2n1 (stereo not shown) shows Cmax equal to 660

* * *

Test: Plasma pharmacokinetics after single intravenous or intragastric dose
Assay type: in vivo, male ICR mice
Details: male, ICR, mouse, in vivo; intravenous 5 mg/kg; plasma; read-out: Vz
MEASURE NAME: Vd (L/kg)
Dear colleague, please return just the value in L/kg, with no unit written.

The compound listed as COc1cc(NC(C)CCCN)c2ncccc2c1 (stereo not shown) [Primaquine, primaquine] shows Vd equal to 3.85

* * *

Assay: Plasma pharmacokinetics after single intravenous or intragastric dose
Format: in vivo, male ICR mice
Details: male, ICR, mouse, po; intragastric 20 mg/kg; plasma; read-out: AUCinfininty
MEASURE NAME: AUC (µg·h/mL)
Dear colleague, please return just the value in µg·h/mL, with no unit written.

The compound listed as COc1cc(C)c2c(Oc3cccc(C(F)(F)F)c3)c(OC)cc(NC(C)CCCN)c2n1 (stereo not shown) shows AUC equal to 139

* * *

Assay: Plasma pharmacokinetics after single intravenous or intragastric dose
Type: in vivo, male ICR mice
Settings: male, ICR, mouse; intravenous 5 mg/kg; plasma; read-out: Vz
MEASURE NAME: Vd (L/kg)
Dear colleague, please return just the value in L/kg, with no unit written.

The molecule listed as COc1cc(C)c2c(Oc3cccc(C(F)(F)F)c3)c(OC)cc(NC(C)CCCN)c2n1 (stereo not shown) [Tafenoquine, tafenoquine] shows Vd equal to 16.8

* * *

Experiment: Plasma pharmacokinetics after single intravenous or intragastric dose
Type: in vivo, male ICR mice
Conditions: male, ICR, mouse, po; intragastric 20 mg/kg; plasma
MEASURE NAME: MRT (h)
Dear colleague, please return just the value in h, with no unit written.

The compound listed as COc1cc(C)c2c(Oc3cccc(C(F)(F)F)c3)c(OC)cc(NC(C)CCCN)c2n1 (stereo not shown) [Tafenoquine, tafenoquine] shows MRT equal to 62.1

* * *

Test: Plasma pharmacokinetics after single intravenous or intragastric dose
Assay type: in vivo, male ICR mice
Details: male, ICR, mouse, oral; intragastric 20 mg/kg vs intravenous 5 mg/kg; plasma; read-out: Absolute bioavailability
MEASURE NAME: bioavailability (%)
Dear colleague, please return just the value in %, with no unit written.

The compound listed as COc1cc(C)c2c(Oc3cccc(C(F)(F)F)c3)c(OC)cc(NC(C)CCCN)c2n1 (stereo not shown) [Tafenoquine, tafenoquine] shows bioavailability equal to 101

* * *

Test: Plasma pharmacokinetics after single intravenous or intragastric dose
Type: in vivo, male ICR mice
Details: male, ICR, mouse; intravenous 5 mg/kg; plasma
MEASURE NAME: AUC(0-t) (ng·h/mL)
Dear colleague, please return just the value in ng·h/mL, with no unit written.

The compound listed as COc1cc(C)c2c(Oc3cccc(C(F)(F)F)c3)c(OC)cc(NC(C)CCCN)c2n1 (stereo not shown) shows AUC(0-t) equal to 29600

* * *

Assay: Liver tissue distribution pharmacokinetics after single intravenous or intragastric dose
Assay type: in vivo, male ICR mice
Conditions: male, ICR, mouse, po; intragastric 20 mg/kg; liver
MEASURE NAME: MRT (h)
Dear colleague, please return just the value in h, with no unit written.

The compound listed as COc1cc(C)c2c(Oc3cccc(C(F)(F)F)c3)c(OC)cc(NC(C)CCCN)c2n1 (stereo not shown) shows MRT equal to 88.7

* * *

Experiment: Plasma pharmacokinetics after single intravenous or intragastric dose
Type: in vivo, male ICR mice
Conditions: male, ICR, mouse; intravenous 5 mg/kg; plasma
MEASURE NAME: MRT (h)
Dear colleague, please return just the value in h, with no unit written.

The compound listed as COc1cc(C)c2c(Oc3cccc(C(F)(F)F)c3)c(OC)cc(NC(C)CCCN)c2n1 (stereo not shown) shows MRT equal to 55.9

* * *

Experiment: Plasma pharmacokinetics after single intravenous or intragastric dose
Format: in vivo, male ICR mice
Conditions: male, ICR, mouse, in vivo; intravenous 5 mg/kg; plasma
MEASURE NAME: AUC(0-t) (ng·h/mL)
Dear colleague, please return just the value in ng·h/mL, with no unit written.

The compound listed as COc1cc(NC(C)CCCN)c2ncccc2c1 (stereo not shown) [Primaquine, primaquine] shows AUC(0-t) equal to 1200

* * *

Assay: Liver tissue distribution pharmacokinetics after single intravenous or intragastric dose
Type: in vivo, male ICR mice
Conditions: male, ICR, mouse; single oral dose 20 mg/kg; liver; read-out: Cmax
MEASURE NAME: Cmax (ng/g)
Dear colleague, please return just the value in ng/g, with no unit written.

The compound listed as COc1cc(C)c2c(Oc3cccc(C(F)(F)F)c3)c(OC)cc(NC(C)CCCN)c2n1 (stereo not shown) shows Cmax equal to 56900

* * *

Test: Liver tissue distribution pharmacokinetics after single intravenous or intragastric dose
Assay type: in vivo, male ICR mice
Conditions: ICR, mouse; intravenous 5 mg/kg; liver; male mice (head: μg/mL or g); read-out: Cmax
MEASURE NAME: Cmax

The compound listed as COc1cc(C)c2c(Oc3cccc(C(F)(F)F)c3)c(OC)cc(NC(C)CCCN)c2n1 (stereo not shown) shows Cmax equal to 44800 ng/g

* * *

Assay: Liver tissue distribution pharmacokinetics after single intravenous or intragastric dose
Assay type: in vivo, male ICR mice
Settings: male, ICR, mouse, po; intragastric 20 mg/kg; liver
Procedure: PK studies were performed using both intravenous (IV) and intragastric (IG) administration. For each time point to be acquired, three male ICR mice per time-point, aged seven weeks, were dosed at either PQ or TQ at 5 mg/kg (IV) or 20 mg/kg (IG). […] Drug concentrations were generated for each sample taken from animals dosed with both test drugs. […] The elimination half-life (t1/2) was calculated from In2/kel, which is the elimination rate constant calculated from the log concentration-time plot. […]
MEASURE NAME: Tmax
I'd appreciate it if you wrote the number followed by its unit.

The compound listed as COc1cc(C)c2c(Oc3cccc(C(F)(F)F)c3)c(OC)cc(NC(C)CCCN)c2n1 (stereo not shown) shows Tmax equal to 1.17 h
